System: Neisseria gonorrhoeae strain NCCP11945
Experiment: Growth inhibition screen of organic acids
Format: cell-based
Conditions: strain NCCP11945, in vitro, 1 mM
Quantity Measured: Inhibits growth of Neisseria gonorrhoeae

Example compounds with recorded Inhibits growth of Neisseria gonorrhoeae:
>>> value_observed("CCCCCCCC/C=C/CCCCCCCC(=O)O [Elaidic acid 18:1 tΔ9, Elaidic acid]")
"Yes"
>>> value_observed("CCCCCCCCCCCCCC(=O)OC(C)C [Isopropyl myristate]")
"No"
>>> value_observed("CCCCCC/C=C\\CCCCCCCCCC(=O)O [Cis-Vaccenic acid 18:1 cAll, Cis-Vaccenic acid]")
"No"
>>> value_observed("O=C(O)CCCCCC(=O)O [Pimelic acid]")
"No"

Count: 4. Required value per item: Inhibits growth of Neisseria gonorrhoeae.
1. CCCCCCCCCCCCCCCC(=O)O [Palmitic acid 16:0, Palmitic acid]
2. O=C(O)CCCCCCCC(=O)O [Azelaic acid]
3. CCCCCCCCCCCCCCC(=O)O [Pentadecylic acid 15:0, Pentadecylic acid]
4. CCCCCCCCCCCCCC(=O)[O-].[Na+] [Sodium myristate]

Solution:
1: No; 2: No; 3: Yes; 4: Yes

Problem: Please indicate Inhibits growth of Neisseria gonorrhoeae recorded for CC/C=C\C/C=C\C/C=C\CCCCCCCC(=O)O [Linolenic acid 18:3 cΔ9,12,15, α-linolenic acid]
Solution: Yes

====

Tested on: Neisseria gonorrhoeae strain NCCP11945
Test: Growth inhibition screen of organic acids
Type: cell-based
Conditions: strain NCCP11945, in vitro, 1 mM
Quantity Measured: Inhibits growth of Neisseria gonorrhoeae

Example compounds with recorded Inhibits growth of Neisseria gonorrhoeae:
>>> value_observed("O=C(O)CCCCCCC(=O)O")
"No"
>>> value_observed("CCCCCCCC(=O)OCC(O)CO (racemic)")
"Yes"
>>> value_observed("O=C(O)CCCCC(=O)O")
"No"
>>> value_observed("CCCCCCCCCCCCC(=O)O")
"Yes"

Count: 2. Required value per item: Inhibits growth of Neisseria gonorrhoeae.
1. CCCCCCCCCCCCCCCCCC(=O)O
2. CCCCC/C=C\C/C=C\C/C=C\C/C=C\CCCC(=O)O

Solution:
1. No
2. Yes

Count: 3. Required value per item: Inhibits growth of Neisseria gonorrhoeae.
1. O=C(O)CCC(=O)O
2. C/C=C/C=C/C(=O)O
3. CCCCCCCCCCCCCCCCC(=O)O

Solution:
No
No
No
